Value source: ChEMBL document CHEMBL1134151

Give measured IC50 for each item. Keep answers brief.
# test_target: Sodium channel protein type 5 subunit alpha (Homo sapiens, UniProt Q14524)
# Sequence (Q14524 whole entry): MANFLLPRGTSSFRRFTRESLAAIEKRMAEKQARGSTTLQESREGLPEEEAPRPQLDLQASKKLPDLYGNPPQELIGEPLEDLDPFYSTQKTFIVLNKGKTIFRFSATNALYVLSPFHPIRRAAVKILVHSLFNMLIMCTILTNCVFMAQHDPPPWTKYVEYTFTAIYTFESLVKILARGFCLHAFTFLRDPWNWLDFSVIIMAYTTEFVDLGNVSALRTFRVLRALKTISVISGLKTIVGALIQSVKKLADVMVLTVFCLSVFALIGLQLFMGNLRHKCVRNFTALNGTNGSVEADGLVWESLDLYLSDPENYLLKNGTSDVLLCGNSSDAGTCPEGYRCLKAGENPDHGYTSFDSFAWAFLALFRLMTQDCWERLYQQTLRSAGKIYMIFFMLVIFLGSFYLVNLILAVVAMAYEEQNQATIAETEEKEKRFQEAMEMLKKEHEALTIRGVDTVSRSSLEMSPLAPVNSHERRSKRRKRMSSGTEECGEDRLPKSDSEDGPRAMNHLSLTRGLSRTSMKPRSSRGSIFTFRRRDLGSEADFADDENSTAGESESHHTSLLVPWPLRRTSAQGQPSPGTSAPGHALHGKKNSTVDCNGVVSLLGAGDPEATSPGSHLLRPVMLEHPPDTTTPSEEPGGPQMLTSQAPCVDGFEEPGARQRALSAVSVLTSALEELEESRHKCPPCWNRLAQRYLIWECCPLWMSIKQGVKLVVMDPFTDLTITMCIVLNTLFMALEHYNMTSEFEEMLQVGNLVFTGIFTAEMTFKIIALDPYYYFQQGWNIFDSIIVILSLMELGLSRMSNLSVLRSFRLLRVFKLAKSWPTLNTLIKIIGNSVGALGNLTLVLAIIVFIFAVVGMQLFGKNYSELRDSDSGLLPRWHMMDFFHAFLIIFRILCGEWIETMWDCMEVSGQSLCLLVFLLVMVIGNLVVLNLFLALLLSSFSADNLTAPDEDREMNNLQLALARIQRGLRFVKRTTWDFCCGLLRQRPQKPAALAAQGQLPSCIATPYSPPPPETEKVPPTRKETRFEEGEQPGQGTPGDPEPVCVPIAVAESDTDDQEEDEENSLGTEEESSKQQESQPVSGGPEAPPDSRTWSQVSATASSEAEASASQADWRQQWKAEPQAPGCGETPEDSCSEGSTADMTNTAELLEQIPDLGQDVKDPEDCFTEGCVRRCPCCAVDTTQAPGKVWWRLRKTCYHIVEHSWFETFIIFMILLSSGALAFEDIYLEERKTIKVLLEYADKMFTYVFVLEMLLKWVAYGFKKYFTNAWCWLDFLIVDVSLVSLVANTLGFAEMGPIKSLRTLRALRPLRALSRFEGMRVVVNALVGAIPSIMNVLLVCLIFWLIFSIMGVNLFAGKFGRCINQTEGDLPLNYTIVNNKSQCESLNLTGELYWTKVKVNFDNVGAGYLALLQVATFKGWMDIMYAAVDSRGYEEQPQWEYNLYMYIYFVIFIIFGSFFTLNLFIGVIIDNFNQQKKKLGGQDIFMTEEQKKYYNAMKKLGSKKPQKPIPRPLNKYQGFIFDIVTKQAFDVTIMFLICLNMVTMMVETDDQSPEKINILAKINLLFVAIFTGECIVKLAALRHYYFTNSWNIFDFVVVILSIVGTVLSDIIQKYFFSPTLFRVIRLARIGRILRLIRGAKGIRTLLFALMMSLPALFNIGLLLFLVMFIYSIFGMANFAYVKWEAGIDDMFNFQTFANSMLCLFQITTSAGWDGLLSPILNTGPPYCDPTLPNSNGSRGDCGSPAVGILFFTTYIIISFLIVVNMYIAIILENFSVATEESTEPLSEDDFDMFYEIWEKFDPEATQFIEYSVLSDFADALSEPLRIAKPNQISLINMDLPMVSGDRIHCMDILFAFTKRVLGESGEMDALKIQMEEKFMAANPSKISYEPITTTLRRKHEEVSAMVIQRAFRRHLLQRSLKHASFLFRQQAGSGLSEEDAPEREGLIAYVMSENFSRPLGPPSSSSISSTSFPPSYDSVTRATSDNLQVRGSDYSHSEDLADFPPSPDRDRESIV
# run_description: Inhibition of sodium channel blockade in CHO cells expressing human cardiac (hHI) sodium channel

# IC50 lookup, item NC(=NCCCCc1ccccc1)NC(=O)c1cc(Cl)ccc1Cl 7.89 µM

# IC50 lookup, item N=C(NCCCCc1ccccc1)NC(=O)c1cccs1 2.35 µM

# IC50 lookup, item Cc1ccc(C(=O)NC(=N)NCCCCCc2ccccc2)cc1 3.6 µM

# IC50 lookup, item Cc1ccc(C(=O)NC(=N)NCCCCc2ccccc2)cc1 2.85 µM

# IC50 lookup, item Cc1ccc(C(=O)NC(=N)Nc2ccc(C(C)C)cc2)cc1 19.7 µM

# IC50 lookup, item Cc1ccc(C(=O)NC(N)=NCCSCc2ccccc2)cc1 10.8 µM

# IC50 lookup, item COc1cc(C(=O)NC(N)=NCCCCc2ccccc2)cc(OC)c1OC 1.51 µM

# IC50 lookup, item CCCC/N=C(/N)NC(=O)c1ccc(C)cc1 9 µM

# IC50 lookup, item Cc1ccc(C(=O)N/C(N)=N\c2ccccc2C(C)C)cc1 4.5 µM

# IC50 lookup, item CCCCOc1ccc(C(=O)NC(N)=NCCCCc2ccccc2)cc1 0.56 µM

# IC50 lookup, item CCOc1ccc(C(=O)NC(N)=NCCCCc2ccccc2)cc1 1.1 µM

# IC50 lookup, item Cc1ccc(C(=O)NC(N)=NCc2cccc3ccccc23)cc1 8.85 µM
